Give measured OX2R agonist activity (3 μM, %) for each item. Keep answers brief.
- target-entity: human orexin type 2 receptor (Homo sapiens, UniProt O43614)
- Construct: human orexin type 2 receptor cDNA was inserted into pcDNA3.1(+) plasmid vector (Invitrogen); expressed in transfected cells
- Sequence (O43614 whole entry): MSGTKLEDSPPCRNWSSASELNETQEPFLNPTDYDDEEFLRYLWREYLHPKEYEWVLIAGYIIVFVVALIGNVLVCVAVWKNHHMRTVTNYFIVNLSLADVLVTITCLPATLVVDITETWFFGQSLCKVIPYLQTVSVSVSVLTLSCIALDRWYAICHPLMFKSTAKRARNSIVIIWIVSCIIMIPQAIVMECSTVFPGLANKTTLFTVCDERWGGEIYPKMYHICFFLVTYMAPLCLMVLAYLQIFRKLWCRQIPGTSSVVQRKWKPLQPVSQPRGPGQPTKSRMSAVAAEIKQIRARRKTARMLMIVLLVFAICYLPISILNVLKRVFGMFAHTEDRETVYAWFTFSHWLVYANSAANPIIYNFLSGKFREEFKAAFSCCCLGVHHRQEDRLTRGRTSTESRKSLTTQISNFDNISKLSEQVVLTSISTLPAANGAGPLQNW
- experiment-description: Measurement of orexin type 2 receptor agonist activity (calcium fluorescence, CHO cells expressing hOX2R)
- Format: cell-based
- conditions: test compound 3 μM; CHO cells expressing human OX2 receptor; DMSO = 0%, orexin A (human) = 100%
Return type: number; implicit unit %.

input: Quickly give me recorded OX2R agonist activity (3 μM, %) for "CC(C)C(=O)N1CC[C@H](NS(C)(=O)=O)[C@@H]1Cc1cccc(-c2cc(F)cc(F)c2)c1F"
output: 107

input: Quickly give me recorded OX2R agonist activity (3 μM, %) for "CC(C)(O)C(=O)N1CC[C@H](NS(C)(=O)=O)[C@@H]1Cc1cccc(-c2cc(F)cc(Cl)c2)c1F"
output: 102

input: Quickly give me recorded OX2R agonist activity (3 μM, %) for "CC(C)(O)C(=O)N1CC[C@H](NS(=O)(=O)C2(F)CC2)[C@@H]1Cc1cccc(-c2ccccc2)c1F"
output: 103

input: Quickly give me recorded OX2R agonist activity (3 μM, %) for COC(=O)N1CCC[C@H](NS(C)(=O)=O)[C@@H]1Cc1ccc(F)c(-c2ccccc2)c1 (relative stereo)
output: 67

input: Quickly give me recorded OX2R agonist activity (3 μM, %) for CCS(=O)(=O)N[C@H]1CCN(C(=O)N(C)C)[C@H]1Cc1cccc(-c2cccc(F)c2)c1F [Example 486]
output: 102

input: Quickly give me recorded OX2R agonist activity (3 μM, %) for CCOC(=O)N1CCC[C@H](NS(C)(=O)=O)[C@@H]1Cc1cccc(-c2ccccc2)n1 (relative stereo)
output: 75

input: Quickly give me recorded OX2R agonist activity (3 μM, %) for C=C(C)c1cccc(C[C@H]2[C@@H](NS(C)(=O)=O)CCCN2C(=O)OC)c1 (relative stereo)
output: 84

input: Quickly give me recorded OX2R agonist activity (3 μM, %) for "COCS(=O)(=O)N[C@H]1CCN(C(=O)C2CCC2)[C@H]1Cc1cccc(-c2ccccc2)c1"
output: 103

input: Quickly give me recorded OX2R agonist activity (3 μM, %) for "CCS(=O)(=O)N[C@H]1CCN(C(=O)C2CCC2)[C@H]1Cc1cccc(-c2ccccc2)c1"
output: 116

input: Quickly give me recorded OX2R agonist activity (3 μM, %) for CS(=O)(=O)N[C@H]1CCN(C(=O)C2(O)CCC2)[C@H]1Cc1cccc(-c2cccc(F)c2)n1 (relative stereo)
output: 103

input: Quickly give me recorded OX2R agonist activity (3 μM, %) for "CC(C)(O)C(=O)N1CC[C@H](NS(=O)(=O)CF)[C@@H]1Cc1cccc(-c2cc(F)cc(F)c2)c1F"
output: 109

input: Quickly give me recorded OX2R agonist activity (3 μM, %) for CS(=O)(=O)N[C@H]1CCN(C(=O)C2CCC2)[C@H]1Cc1csc(-c2cccc(F)c2F)n1 (relative stereo)
output: 97

input: Quickly give me recorded OX2R agonist activity (3 μM, %) for CCNC(=O)N1CCC[C@H](NS(C)(=O)=O)[C@@H]1Cc1cccc(O[Si](C(C)C)(C(C)C)C(C)C)c1 (relative stereo)
output: 29

input: Quickly give me recorded OX2R agonist activity (3 μM, %) for CCNC(=O)N1CCC[C@H](NS(C)(=O)=O)[C@@H]1Cc1ccc(Oc2ccccc2)cc1 (relative stereo)
output: 24

input: Quickly give me recorded OX2R agonist activity (3 μM, %) for CS(=O)(=O)N[C@H]1CCCN(C(=O)C2CC2)[C@H]1Cc1cccc(-c2ccccc2)c1 (relative stereo)
output: 101

input: Quickly give me recorded OX2R agonist activity (3 μM, %) for "CS(=O)(=O)N[C@H]1CCN(C(=O)N2CC(F)(F)C2)[C@H]1Cc1cccc(-c2cccc(F)c2)c1"
output: 109

input: Quickly give me recorded OX2R agonist activity (3 μM, %) for "CCS(=O)(=O)N[C@H]1CCN(C(=O)N2CCC2)[C@H]1Cc1cccc(-c2ccccc2)c1F"
output: 104

input: Quickly give me recorded OX2R agonist activity (3 μM, %) for CS(=O)(=O)N[C@H]1CCN(C(=O)C2CCC2)[C@H]1Cc1ccc(F)c(-c2ccccc2)c1 (relative stereo)
output: 95

input: Quickly give me recorded OX2R agonist activity (3 μM, %) for CCNC(=O)N1CCC[C@H](NS(C)(=O)=O)[C@@H]1Cc1ccccc1Oc1ccccc1 (relative stereo)
output: 93

input: Quickly give me recorded OX2R agonist activity (3 μM, %) for CS(=O)(=O)N[C@H]1CCN(C(=O)C2(O)CCC2)[C@H]1Cc1csc(-c2cc(F)cc(F)c2)n1 [Example 339]
output: 102

input: Quickly give me recorded OX2R agonist activity (3 μM, %) for "CC(C)(O)C(=O)N1CC[C@H](NS(=O)(=O)C(F)F)[C@@H]1Cc1cccc(-c2cc(F)cc(F)c2)c1F"
output: 101

input: Quickly give me recorded OX2R agonist activity (3 μM, %) for CC(C)OC(=O)N1CCC[C@H](NS(C)(=O)=O)[C@@H]1Cc1csc(-c2ccccc2)n1 (relative stereo)
output: 96

input: Quickly give me recorded OX2R agonist activity (3 μM, %) for "CS(=O)(=O)N[C@H]1CCN(C(=O)N2CCC2)[C@H]1Cc1cccc(-c2cc(F)cc(F)c2)c1"
output: 93

input: Quickly give me recorded OX2R agonist activity (3 μM, %) for CCS(=O)(=O)N[C@H]1CCN(C(=O)N(C)C)[C@H]1Cc1cccc(-c2cccc(F)c2)c1F [Example 373]
output: 96

input: Quickly give me recorded OX2R agonist activity (3 μM, %) for "CN(C)C(=O)N1CC[C@H](NS(=O)(=O)N(C)C)[C@@H]1Cc1cccc(-c2cc(F)cc(F)c2)c1F"
output: 103

input: Quickly give me recorded OX2R agonist activity (3 μM, %) for "CC(C)(C)C(=O)N1CC[C@H](NS(C)(=O)=O)[C@@H]1Cc1cccc(-c2cccc(F)c2)c1F"
output: 99

input: Quickly give me recorded OX2R agonist activity (3 μM, %) for CC(C)OC(=O)N1CCC[C@H](NS(C)(=O)=O)[C@@H]1Cc1cccc2c1oc1ccccc12 (relative stereo)
output: 35

input: Quickly give me recorded OX2R agonist activity (3 μM, %) for "CS(=O)(=O)N[C@H]1CCN(C(=O)C2CCC2)[C@H]1Cc1cccc(-c2cccc(F)c2)c1F"
output: 99
